Assay: yeast display, Sf9 membrane polyspecificity reagent, FACS + sequencing; frameworks hold sequencing errors
reported.endpoint: polyreactivity (PSR sort gate)

| sequence.code | polyreactivity (PSR sort gate) |
| --- | --- |
| QVQLVESGGGLVQAGGSLRLSCAASGNIFTYNAMGWYRQAPGKERELVAAISWTADSTYYADSVKGRFTISRDNAKNTVYLQMNSLKPEDTAVYYFAADSQYADYGYWGQGTQVTVSS | high polyreactivity |
| QVQLVESGGGLVQAGGSLRLSCAASGIIFYFYTMGWYRQAPGKERELVAAISSSGGRTFYADSVKGRFTISRDNAKNTVYLQMNSLKPEDTAVYYCAAAHTREYYWGQGTQVTVSS | high polyreactivity |
| QVQLVESGGCLVQAGGSLRLSCAASGYTFRYNAMGWYRQAHGKERELVATITRGGSTNYADSVKGRFTISRDNEKNTVYLLMYSLKPEDPAVYYCNKEAAPLGFVPSYYGRDYWRQGTQVTVSS | low polyreactivity |
| QVQLVESGGGLVQAGGSLRLSCAASGRIFSHYAMAWYRQAPGKERELVAAITSDRSTNYADSVKGRFTISRDNANNTVYLQMNSLKPDDTAVYYCAKYVHIPYYYYLFGSYDYWGQGTQVTVSS | low polyreactivity |
| QVQLVESGGGLVQAGGSLRLSCAASGSTFGRNTMGWYRQAPGKERELVAAITSGDTTTYADSVKGRFTISRDNAKNTVYLQMNSLKPEDTAVYYCAVDPVRGRDYSWMDYWGQGTQVTVSS | low polyreactivity |
| QVQLVESGGGLVQAGGSLRLSCAASGFTFRYYAMGWYRQAPGKERELLAAISWSGGSTYYADSVKGRFTISRDNAKNTVYLQMNSLNPEDTAVYYCAADSVFGGRGRYQASRYYYWGQGPQVTVSS | high polyreactivity |
| QVQLVESGGGLVQAGGSLRLSCAASGRTFRSNAMGWYRQAPGKERELVAAISNSGASTYYADSVKGRFTISRDNAKNTFYLQMNSLKPEDTAVYYCAADYYRPYRYDYWGQGTQVTVSS | high polyreactivity |
| QVQLVESGGGLVQAGGSLRLSCAASGRTFTPYDMGWYRPAPGKERELVAAITWRGGSTYYADSVKGRFTISRDNAKNTVYLQMNSLKPEDTAVYYCAKDRWTYAFRVGYGYWGQGTQVTVSS | high polyreactivity |
| QVQLVESGGGLVQAGGSLRISCAASGITFWYYAMGWYRQAPGKERELVAAITRSGRTNYADSVKGRFTISRDNAKNTVYLQMNSLKPEDTAVYYCNAASLRYSYTLFDSWGLGTQVTVSS | high polyreactivity |
| QVQLVESGGGLVQAGGSLRLSCAASGFIFTSYAMGWYRQAPGKERELVAAITDGGSTNYADSVKGRFTISRDNAKNTVYLQMNSLKPEDTAVYYCAADGFKTVLPEYDYWGQGTQVTVSS | low polyreactivity |

For the next question, use this sequence.
Problem: Which polyreactivity (PSR sort gate) value is on record for QDQLVESRGGLVQAGGSLRLSCAASGSIFIENTMGWYRQAPGKERELVAAISGSVGRTFYADSVKGRFTISRDNAKNTVYLQMNSLKPEDTAVYYCAAVRRTSPGWVYYWGQGTRVTVSS ?
Result: high polyreactivity

* * *

Assay: yeast display, Sf9 membrane polyspecificity reagent, FACS + sequencing; frameworks hold sequencing errors
reported.endpoint: polyreactivity (PSR sort gate)

| sequence.code | meas.value |
| --- | --- |
| QVKLVESGVGLVKAGVSLRLSSAASGFTFYSYAMGCYRQAPGKESELVAAISWSGSRTYYADSVKGRFTISRDNAKNTVYLQMNSLKPEDTGVYYCAAYSYVRYSSWSDYWGLGTQVTVSS | high polyreactivity |
| QVKRVESGGGLVQAGGSLRLSCAASGIMFSPNDMGRFRQGPGKERELVARITTDGSSTYYADSVKGRFTISRDNAKNTVYLQINSLKPEDTAVYSCNADQLWYSLFDYWGQGTLVTVSS | high polyreactivity |
| QVQLVESGGGLVQAGGSLRLSCAASGFIFWIYAMGWYRQAPGKEREFVAVITYRGDTSYYADSVKGRFTISRDNAKNTVYLQMNSLKPEDTAVYYCAAYTVQKYGYWGQGTQVTVSS | low polyreactivity |
| QVHLVESGGGLVQAGGSLRLSCAASGRTFYGYDMGWYRQAPGKERELVATISSGGSTNYADSVKGRFTISRDYAKNTVYLQMNSLKPEDTAVYYCNADSYEYPSPYRYYYLGYDYWGQGTQVTVSS | low polyreactivity |

For the next question, use this sequence.
Problem: Which polyreactivity (PSR sort gate) value is on record for QVQLVESGGGLVQAGGSLRLSCAASGSTFPGNAMGWYRQAPGKERELVAAINWSGDSTYYADSVKGRFTISRDNAKNTVYLQMNSLKPEDTAVYYCAAYGVGYYYWGQGTQVTVSS ?
Result: low polyreactivity
